Form field: protein stability index (one value per entry).
B1: PPEF2 (parent)
chain: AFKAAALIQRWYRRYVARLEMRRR

# Variants of: B1
# PROTOCOL: protein stability index of a GFP-peptide fusion (GPS, HEK-293T) (PSI 1-6); higher = more stable;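 note: lentivirally expressed fusions sorted by FACS into six bins by GFP to DsRed ratio, PSI derived from sequencing read proportions per bin multiplied by bin number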
# EXPERIMENTAL_SETUP: c terminus: a fixed tail appended
Give a plain numeric answer without units written out.

Examples from the recorded data:
variant_notation=R23A recorded_number=2.81
variant_notation=E20T recorded_number=2.65
variant_notation=A1Q recorded_number=3.52

Exam item: Which protein stability index reading was recorded for the variant R13L ?
Marked response: 2.05

Exam item: Which protein stability index reading was recorded for the variant A6P ?
Marked response: 1.95

Exam item: Which protein stability index reading was recorded for the variant L19P ?
Marked response: 3.63

Exam item: Which protein stability index reading was recorded for the variant V16P ?
Marked response: 1.92

Exam item: Which protein stability index reading was recorded for the variant R10F ?
Marked response: 2.88

Exam item: Which protein stability index reading was recorded for the variant A1R ?
Marked response: 3.66
